A compilation of IC50 values for Peptidyl-prolyl cis-trans isomerase NIMA-interacting 1 (Homo sapiens) from the published literature.

Chemical string | Endpoint unit | Result modifier | IC50
C=CC(=O)N1CCC2(CC1)SCC(=O)N2Cc1ccc(-c2ccccc2)o1 | µM | > | 100
O=C(N[C@H](CCC(=O)N1CCOCC1)C(=O)O)c1ccc2ccccc2c1 | µM | = | 83
CC(C)=CCC[C@H](C(=O)OCc1ccccc1)[C@@H]1CC[C@]2(C)C3=C(CC[C@@]12C)[C@@]1(C)C/C(=C\C(=O)N2CCNCC2)C(=O)C(C)(C)[C@@H]1CC3 | µM | > | 40
CC(C)=CCC[C@H](C(=O)OCc1ccccc1)[C@@H]1CC[C@]2(C)C3=C(CC[C@@]12C)[C@@]1(C)C/C(=C\C(=O)N2CCN(C)CC2)C(=O)C(C)(C)[C@@H]1CC3 | µM | = | 32.3
O=[N+]([O-])c1cnc(Cl)cc1Oc1cccc2ocnc12 | µM | > | 100
N#Cc1ccccc1Oc1nc(Cl)ncc1[N+](=O)[O-] | µM | = | 9.05
Cn1nc(-c2ccccc2)cc1C(=O)N[C@H](CC(=O)N1CCCCC1)C(=O)O | µM | > | 100
O=C(CCl)N1CCC2(CC1)SCC(=O)N2Cc1ccc(-c2ccc3ccccc3c2)o1 | µM | = | 0.38
